Please provide measured GI50 for the entries that follow.
system: MDA-MB-231 breast; test: NCI tumour cell line growth inhibition, 48 h

- CC(C)(C)c1[nH]nc2c1C(c1cc3ccccc3[nH]c1=O)Nc1cc(C(=O)Nc3ccc(Cl)cc3)ccc1N2 (centres undefined): 2.26 µM
- Nc1nc2c(c3cnccc13)C(c1cccc(Br)c1)Cc1cnccc1-2 (centres undefined): 1.11 µM
- Nc1nc(-c2cccc3ccccc23)cc2ccccc12: 0.712 µM
- CC(C)=CC(=O)OCC(=O)O[C@@H]1C[C@]2(C(C)C)O[C@@]1(C)[C@@H]1CC[C@@H](C)[C@H]1[C@@H]2OC(=O)/C=C/c1ccccc1: > 51.7 µM
- O=C1C=CC(=O)c2c1c1c(c3c2C2c4ccccc4C3c3ccccc32)C2c3ccccc3C1c1ccccc12: 2.02 µM

# map each compound to its GI50
1. CCOC(=O)c1cc(NC(=O)c2cc(NC(=O)c3cc(NC(=O)c4c(-c5ccccc5)noc4C)cn3C)cn2C)cn1C
2. COc1cc2c3c(n(CCCN=[N+]=[N-])c(=O)c2cc1OC)-c1ccc(C#N)cc1C3=O
3. C=C(C)[C@@H]1CC[C@]2(CNCCO)CC[C@]3(C)[C@H](CC[C@@H]4[C@@]5(C)CCC(N)[C@@](C)(CO)[C@@H]5CC[C@]43C)[C@@H]12 (some centres undefined)
4. Cn1cc(C2=C(Sc3ccccc3)C(=O)NC2=O)c2ccccc21

*A*
1: 35 µM; 2: 2.93 µM; 3: 1.86 µM; 4: 12.1 µM
